target: Vasopressin V1a receptor (Homo sapiens); experiment: V1R activation via calcium rise – fluorescence, CHO-V1R cells, counter-screen for OXTR agonist project, primary screen (AID 2797); conditions: Fluo-8 calcium fluorescence, agonist mode, at 3 µM, hits give high values, 0% DMSO, 100% 3 nM vasopressin;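 also: signal is peak over basal fluorescence ratio across a 100 second FLIPR read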
The whole screen tested about 320,000 compounds, of which about 820 (0.26%) were called active. The full list was thinned out, with actives kept by preference.
Recorded activation, one value per entry.
Readout: activation (%)

{"columns": ["Compound", "Value Units", "Recorded Result"],
 "data": [
  ["COc1ccc(C2C=C(c3ccc(Br)cc3)Nc3nc(NS(C)(=O)=O)nn32)cc1 (stereo not given)", "%", 23.5],
  ["CCOc1ccc(C2=CC(c3ccccc3)n3ncnc3N2)cc1 (stereo not given)", "%", 0.49],
  ["CCCCC(=O)NNC(=S)NC(=O)C(c1ccccc1)c1ccccc1", "%", 73.7],
  ["CCOc1ccc2[nH]c3nc(SCC(=O)NC4CCCC4)nnc3c2c1", "%", 1.39],
  ["O=C(N/N=C/c1cc([N+](=O)[O-])ccc1O)/C(=C\\c1cccs1)NC(=O)c1ccccc1", "%", 0.52]
]}

* * *

biological target: Vasopressin V1a receptor (Homo sapiens); experiment: V1R activation via calcium rise – fluorescence, CHO-V1R cells, counter-screen for OXTR agonist project, primary screen (AID 2797); settings: Fluo-8 calcium fluorescence, agonist mode, at 3 µM, hits give high values, 0% DMSO, 100% 3 nM vasopressin;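 also: signal is peak over basal fluorescence ratio across a 100 second FLIPR read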
The campaign covered roughly 320,000 compounds. About 820 (0.26%) were called active. This is one part of a sample in which actives are shown more often than they occur.
Readout: activation (%)

{"columns": ["Compound", "Recorded Result"],
 "data": [
  ["O=C(CCc1[nH]c2ccccc2c1Sc1ccccc1)N(CCO)CCO", 0.05],
  ["CN(c1ccccc1)c1ccc(/C=c2\\s/c(=C(/C#N)C(=O)C(C)(C)C)n(Cc3ccco3)c2=O)cc1", 28],
  ["COCCCNC(=S)NC(=O)c1ccccc1", 1.26],
  ["CCOC(=O)Cc1c(C)nc2c(C#N)c(C)nn2c1C", -0.1],
  ["COc1ccc2c(c1)C(=O)Nc1cc(Cl)ccc1N2", 3.78],
  ["Cc1ccc(S(=O)(=O)NC2CCCCCC2)cc1C(N)=O", 3.64],
  ["CCCCCCn1cc(C(=O)O)c(=O)c2cc(F)c(N3CCCCC3)cc21", 1],
  ["CCc1c(O)cc2n(c1=O)-c1ccccc1C2(C)C", 1.27],
  ["COc1ccccc1NC(=O)Nc1nc(CC(=O)Nc2ccccc2F)cs1", -0.76],
  ["Cc1ccc(N(C(=O)c2snc(C(N)=O)c2N)C(C(=O)NCC2CCCO2)c2c[nH]c3ccccc23)cc1 (stereo not drawn)", 2.4],
  ["O=C(/C=C/c1ccc2c(c1)OCCO2)c1ccc(O)cc1", 1.07],
  ["COCCCNC(=S)NCCNc1nc2cc(C)c(C)cc2cc1C#N", -0.33],
  ["CN(C)c1ccc(C=C2C(=O)OC3(CCCC3)OC2=O)cc1", 2.02],
  ["CN(C)c1ccc(/C=C2\\NC(=S)N(Cc3ccccc3)C2=O)cc1", 70.8],
  ["CCCc1ccc(C(=O)[C@@H]2[C@@H](C(C)=O)N3c4ccc(F)cc4C=C[C@@H]3[C@@]23C(=O)Nc2ccccc23)cc1", -0.96],
  ["COc1ccccc1NC(=O)/C=C/C(N)=O", 0.73],
  ["O=C(/C=C/c1ccc(OCc2c(F)cccc2Cl)cc1)N1CCOCC1", 2.69],
  ["CCOC(=O)C1=C(NC(=S)NC(=O)c2ccccc2)c2ccccc2CC1(C)C", 29.8],
  ["OCCN(Cc1ccccc1)Cc1ccc(Cl)cc1", 0.58],
  ["CCCCc1nc2cc(C(=O)NCCc3cnn(C)c3)ccc2o1", 1.32],
  ["O=C(/C=C(O)/C=C/c1ccc(O)cc1)/C=C/c1ccc(O)cc1", 76.2],
  ["O=C1CCCN2N=C(SCC(=O)Nc3ccc(Br)cc3)SC2=N1", 8.83],
  ["COc1ccc(S(=O)(=O)N2CCOCC2)c(C)c1C", 0.14]
]}

* * *

target: Vasopressin V1a receptor (Homo sapiens) (UniProt P37288); test: V1R activation via calcium rise – fluorescence, CHO-V1R cells, counter-screen for OXTR agonist project, primary screen (AID 2797); conditions: Fluo-8 calcium fluorescence, agonist mode, at 3 µM, hits give high values, 0% DMSO, 100% 3 nM vasopressin;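 also: signal is peak over basal fluorescence ratio across a 100 second FLIPR read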
Sequence (P37288 whole entry, looked up): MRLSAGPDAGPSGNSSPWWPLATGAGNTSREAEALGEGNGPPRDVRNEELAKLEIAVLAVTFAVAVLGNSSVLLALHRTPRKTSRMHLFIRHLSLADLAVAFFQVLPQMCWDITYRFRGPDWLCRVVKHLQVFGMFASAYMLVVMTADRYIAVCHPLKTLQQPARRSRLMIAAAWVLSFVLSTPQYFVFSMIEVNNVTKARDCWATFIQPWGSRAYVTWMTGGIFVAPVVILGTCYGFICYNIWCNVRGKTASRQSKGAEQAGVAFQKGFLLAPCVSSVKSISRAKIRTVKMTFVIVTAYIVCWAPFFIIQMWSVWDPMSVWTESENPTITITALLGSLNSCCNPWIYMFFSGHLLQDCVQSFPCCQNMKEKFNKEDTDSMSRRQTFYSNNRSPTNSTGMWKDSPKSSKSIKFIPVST
In all, about 320,000 compounds went through this assay and about 820 (0.26%) were called active. The sample holds actives, similar compounds and a random draw of the others, so the mix is not that of the screen.

{"columns": ["Substance Smiles", "activation, %"],
 "data": [
  ["Cc1ccc(CNC(=O)c2ccc3c(c2)S(=O)(=O)c2ccccc2C3=O)cc1", -0.95],
  ["Cc1onc(-c2ccccc2)c1C(=O)N=C(N)c1ccc(Cl)cc1", 0.22],
  ["Cc1onc(-c2c(Cl)cccc2Cl)c1C(=O)NNC(=O)c1c(-c2c(Cl)cccc2Cl)noc1C", 0.81],
  ["Cc1ccc(O)c(-c2cc(C(=O)NCc3ccccc3)[nH]n2)c1", 0.3],
  ["O=C(O)c1ccc2c3c(cccc13)C(=O)N(OS(=O)(=O)c1ccccc1)C2=O", 0.24],
  ["Cc1ccc(CNC(=O)c2cccc3c2C(=O)c2ccc(N4CCC(C)CC4)cc2S3(=O)=O)cc1", 49.5],
  ["CN1C(=O)c2cccc3c(N)ccc(c23)C1=O", 133],
  ["Cc1onc(-c2ccccc2)c1C(=O)Nc1ccccc1C#N", -1.51],
  ["O=C(Nc1ccc(Cl)cc1)Nc1ccc(Oc2cccnc2)nc1", 15.2],
  ["Cc1onc(-c2ccccc2)c1C(=O)NNC(=S)NC(=O)c1ccc(F)cc1", 21.1]
]}

* * *

biological target: Vasopressin V1a receptor (Homo sapiens); assay: V1R activation via calcium rise – fluorescence, CHO-V1R cells, counter-screen for OXTR agonist project, primary screen (AID 2797); settings: Fluo-8 calcium fluorescence, agonist mode, at 3 µM, hits give high values, 0% DMSO, 100% 3 nM vasopressin;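 also: signal is peak over basal fluorescence ratio across a 100 second FLIPR read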
In all, about 320,000 compounds went through this assay and about 820 (0.26%) were called active. Only a selection was taken, and actives are over-represented in it overall.
Readout: activation (%)

{"columns": ["Molecule", "Recorded Result"],
 "data": [
  ["COc1ccc(C2CC(c3cccs3)Nc3nnnn32)cc1 (stereo unspecified)", 1.36],
  ["COc1ccc(NC(=O)CN(Cc2ccccc2)S(C)(=O)=O)cc1OC", 0.58],
  ["COc1ccc(S(=O)(=O)NCC(c2ccc(C)cc2)N2CCN(C)CC2)cc1OC (stereo unspecified)", 0.61],
  ["O=C(CN1C(=O)CCC1=O)Nc1ccc(S(=O)(=O)N2CCOCC2)cc1", 0.29],
  ["CCc1ccc(NC(=O)Cn2nnc(C(=O)NCc3ccc(OC)cc3)c2N)cc1", 0.71],
  ["O=C(CN1CCCCCC1)Nc1ccc(S(=O)(=O)N2CCCCC2)cc1", 0.94],
  ["O=C(CSc1ncnc2sccc12)N1CCN(C(=O)c2cccs2)CC1", 1.53],
  ["CC(Oc1ccc2ccccc2c1)C(=O)NNC(=S)NC(=O)c1ccco1 (stereo unspecified)", 23],
  ["Cc1cc(NC(=O)CCC(=O)N(CC(=O)NCC2CCCO2)c2ccccc2)no1 (stereo unspecified)", -0.14],
  ["Nc1c(C(=O)c2cccs2)sc2nsc(SCCN3CCCCC3)c12", 34.8],
  ["CCOc1ccc(Cn2nnc(C(=O)NCc3ccccc3)c2N)cc1", 27.1]
]}

* * *

biological target: Vasopressin V1a receptor (Homo sapiens) (UniProt P37288); experiment: V1R activation via calcium rise – fluorescence, CHO-V1R cells, counter-screen for OXTR agonist project, primary screen (AID 2797); conditions: Fluo-8 calcium fluorescence, agonist mode, at 3 µM, 0% DMSO, 100% 3 nM vasopressin;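 also: signal is peak over basal fluorescence ratio across a 100 second FLIPR read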
The campaign covered roughly 320,000 compounds. About 820 (0.26%) were called active.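 Rule for the calls: active = activation above the mean activation of all tested compounds plus 3 SD, per screening run (cut at about 20% in these data); inactive = the rest.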 The sample holds actives, similar compounds and a random draw of the others, so the mix is not that of the screen.
Possible outcomes: active, inactive

{"columns": ["Molecule", "Target System", "Discrete Label"],
 "data": [
  ["Cc1cc2c(=O)n(CC(=O)NCC(=O)Nc3ccc(C(C)C)cc3)cnc2s1", "Vasopressin V1a receptor (Homo sapiens) (UniProt P37288)", "inactive"],
  ["CCN(CC)c1ccc(/C=N/NC(=O)c2cnccn2)c(O)c1", "Vasopressin V1a receptor (Homo sapiens) (UniProt P37288)", "active"],
  ["O=C(NC(=S)Nc1ccccc1N1CCCCC1)c1ccc(F)cc1", "Vasopressin V1a receptor (Homo sapiens) (UniProt P37288)", "inactive"],
  ["CCC(C)NC(=O)N[C@@H](CCSC)C(=O)O (stereo partly specified)", "Vasopressin V1a receptor (Homo sapiens) (UniProt P37288)", "inactive"],
  ["Cc1nc2scc(-c3cccs3)c2c(=O)n1N", "Vasopressin V1a receptor (Homo sapiens) (UniProt P37288)", "inactive"],
  ["O=C(C[n+]1ccc2c(c1)nnn2-c1ccccc1)c1ccc(Cl)cc1", "Vasopressin V1a receptor (Homo sapiens) (UniProt P37288)", "inactive"],
  ["COC(=O)c1sc(-c2ccc(C(C)(C)C)cc2)cc1NC(=O)/C=C/C(=O)O", "Vasopressin V1a receptor (Homo sapiens) (UniProt P37288)", "active"],
  ["CC(C)c1cc(NCc2ccccn2)n2c(nc3ccccc32)c1C#N", "Vasopressin V1a receptor (Homo sapiens) (UniProt P37288)", "inactive"],
  ["CN1/C(=C\\C=C2\\N=C(c3ccc(F)cc3)OC2=O)C(C)(C)c2ccccc21", "Vasopressin V1a receptor (Homo sapiens) (UniProt P37288)", "inactive"],
  ["COc1ccc(F)cc1S(=O)(=O)N1CCCCC1", "Vasopressin V1a receptor (Homo sapiens) (UniProt P37288)", "inactive"],
  ["O=C(Nc1ccc2c(c1)OCCO2)c1cnccn1", "Vasopressin V1a receptor (Homo sapiens) (UniProt P37288)", "inactive"]
]}

Where do these numbers come from? They come from PubChem BioAssay AID2797.
